target: mMC5R (Mus musculus); assay: AlphaScreen cAMP agonist assay, HEK293 cells stably expressing mMC5R; format: cell-based; conditions: at 100 μM
Sequence (P41149 whole entry): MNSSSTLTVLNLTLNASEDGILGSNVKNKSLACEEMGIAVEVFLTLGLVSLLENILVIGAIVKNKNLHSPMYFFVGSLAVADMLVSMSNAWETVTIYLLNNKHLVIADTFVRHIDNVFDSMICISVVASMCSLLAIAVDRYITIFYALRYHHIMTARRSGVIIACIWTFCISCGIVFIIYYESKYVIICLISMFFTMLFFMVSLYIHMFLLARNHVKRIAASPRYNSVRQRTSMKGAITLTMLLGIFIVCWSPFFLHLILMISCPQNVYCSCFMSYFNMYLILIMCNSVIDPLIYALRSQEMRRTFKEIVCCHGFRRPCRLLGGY
Square brackets hold non-standard residues; d marks the D form. Peptide text beside a SMILES is read from it. dPhe(4-I) = N[C@H](Cc1ccc(I)cc1)C(=O)O; 2Nal = N[C@@H](Cc1ccc2ccccc2c1)C(=O)O; d2Nal = N[C@H](Cc1ccc2ccccc2c1)C(=O)O
observable: mMC5R percent maximal stimulatory response (compared to NDP-MSH) (% @100μM)
Give bare numbers, in % @100μM.

As a guide, the following entries are already answered.
CC(=O)N[C@H](Cc1ccc(I)cc1)C(=O)N[C@@H](CCCNC(=N)N)C(=O)N[C@H](Cc1ccc2ccccc2c1)C(=O)N[C@H](Cc1ccc2ccccc2c1)C(N)=O [Peptide 38, Ac-DPhe(pI)-Arg-DNal(2’)-DNal(2’)-NH2] (Ac-[dPhe(4-I)]R[d2Nal][d2Nal]-NH2)
20
CC(=O)N[C@H](Cc1ccc(I)cc1)C(=O)N[C@@H](CCCNC(=N)N)C(=O)N[C@H](Cc1ccc(I)cc1)C(=O)N[C@H](Cc1ccc2ccccc2c1)C(N)=O [Peptide 44, Ac-DPhe(pI)-Arg-DPhe(pI)-DNal(2’)-NH2] (Ac-[dPhe(4-I)]R[dPhe(4-I)][d2Nal]-NH2)
65
CC(=O)N[C@H](Cc1ccc2ccccc2c1)C(=O)N[C@@H](CCCNC(=N)N)C(=O)N[C@@H](Cc1ccc2ccccc2c1)C(=O)N[C@H](Cc1ccc2ccccc2c1)C(N)=O [Peptide 23, Ac-DNal(2’)-Arg-Nal(2’)-DNal(2’)-NH2] (Ac-[d2Nal]R[2Nal][d2Nal]-NH2)
25

Data request: Look at this molecule and give its reported mMC5R percent maximal stimulatory response (compared to NDP-MSH). CC(=O)N[C@H](Cc1ccc2ccccc2c1)C(=O)N[C@@H](CCCNC(=N)N)C(=O)N[C@H](Cc1ccc2ccccc2c1)C(=O)N[C@H](Cc1ccc2ccccc2c1)C(N)=O [Peptide 14, Ac-DNal(2’)-Arg-DNal(2’)-DNal(2’)-NH2] (Ac-[d2Nal]R[d2Nal][d2Nal]-NH2)
Data returned: 20

====

target: mMC1R (Mus musculus, UniProt Q01727); test: AlphaScreen cAMP agonist assay, HEK293 cells stably expressing mMC1R; format: cell-based; conditions: full agonist = 90% of maximal NDP-MSH signal
Sequence (Q01727 whole entry): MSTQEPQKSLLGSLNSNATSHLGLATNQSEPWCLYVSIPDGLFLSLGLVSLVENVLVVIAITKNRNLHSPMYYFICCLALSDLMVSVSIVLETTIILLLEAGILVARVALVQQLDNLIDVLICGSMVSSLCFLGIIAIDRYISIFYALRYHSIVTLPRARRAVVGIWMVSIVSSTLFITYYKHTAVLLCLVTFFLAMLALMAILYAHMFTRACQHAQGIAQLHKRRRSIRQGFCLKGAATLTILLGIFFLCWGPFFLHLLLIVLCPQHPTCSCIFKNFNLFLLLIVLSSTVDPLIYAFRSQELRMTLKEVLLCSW
Square brackets hold non-standard residues; d marks the D form. Peptide text beside a SMILES is read from it. dPhe(4-I) = N[C@H](Cc1ccc(I)cc1)C(=O)O; d2Nal = N[C@H](Cc1ccc2ccccc2c1)C(=O)O
observable: mMC1R agonist activity in words

CC(=O)N[C@H](Cc1ccc2ccccc2c1)C(=O)N[C@@H](CCCNC(=N)N)C(=O)N[C@H](Cc1ccc(I)cc1)C(=O)N[C@@H](CCCNC(=N)N)C(N)=O [Peptide 21, Ac-DNal(2’)-Arg-DPhe(pI)-Arg-NH2] (Ac-[d2Nal]R[dPhe(4-I)]R-NH2)
full agonist activity
CC(=O)N[C@H](Cc1ccc2ccccc2c1)C(=O)N[C@@H](CCCNC(=N)N)C(=O)N[C@H](Cc1ccc(I)cc1)C(=O)N[C@H](Cc1ccc2ccccc2c1)C(N)=O [Peptide 20, Ac-DNal(2’)-Arg-DPhe(pI)-DNal(2’)-NH2] (Ac-[d2Nal]R[dPhe(4-I)][d2Nal]-NH2)
full agonist activity
